# experimentNotes: Maximum tolerance dose in mice (Experiment 3)
# Set-up: species or system male mice
# conditionSet: mouse, in vivo, ip; mice, i.p., observed for 72 hours; read-out: maximum tolerance dose
# Experimental: As a result, the maximum tolerance doses of 1-[3-(4-acetamido-2-methoxyphenoxy)-n-propyl]-4-(3-fluorophenyl)-piperazine, 1-[3-(4-acetamido-2-methoxyphenoxy)-n-propyl]-4-(2-fluorophenyl)-piperazine and 1-[3-(4-ethoxycarbonylamino-2-methoxyphenoxy)-n-propyl]-4-phenyl-piperazine methanesulfonate were more than 300 mg/kg.
readoutLabel: MTD at 72 h

* CCOC(=O)Nc1ccc(OCCCN2CCN(c3ccccc3)CC2)c(OC)c1.CS(=O)(=O)O [Example 21 methanesulfonate] | > 300 mg/kg
